molecular target: Rat CBG-WT (Rattus norvegicus)
pKd: −log10 of the molar value.
readout.type: pKd

C[C@]12C[C@H](O)[C@H]3[C@@H](CCC4=CC(=O)CC[C@@]43C)[C@@H]1CC[C@@H]2C(=O)CO = 7.43
C[C@]12CCC(=O)C=C1CC[C@@H]1[C@@H]2[C@@H](O)C[C@@]2(C)[C@H]1CC[C@]2(O)C(=O)CO [Hydrocortisone] = 6.91

---

Target: Rat CBG-RCL1 (Rattus norvegicus, UniProt P31211, A357V/P358T)
Construct: residues 5 to 374 of rat CBG (P31211); GST (N, cleaved yes)
Sequence (P31211 27-396 A357V/P358T): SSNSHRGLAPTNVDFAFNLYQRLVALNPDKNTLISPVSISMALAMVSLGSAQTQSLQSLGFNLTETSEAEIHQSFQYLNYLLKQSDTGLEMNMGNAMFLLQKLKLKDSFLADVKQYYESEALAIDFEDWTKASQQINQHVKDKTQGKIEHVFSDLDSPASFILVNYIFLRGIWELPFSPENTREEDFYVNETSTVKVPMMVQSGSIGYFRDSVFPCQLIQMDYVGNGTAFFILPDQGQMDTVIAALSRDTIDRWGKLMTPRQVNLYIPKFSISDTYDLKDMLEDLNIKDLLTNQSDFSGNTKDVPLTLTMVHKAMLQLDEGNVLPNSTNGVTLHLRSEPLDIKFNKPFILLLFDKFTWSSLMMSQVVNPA
Assay: Isothermal titration calorimetry, steroid titrated to uncleaved rat CBG-RCL1
Conditions: ITC, 25°C, single titration
pKd: −log10 of the molar value.
readout.type: pKd

C[C@]12CCC(=O)C=C1CC[C@@H]1[C@@H]2[C@@H](O)C[C@@]2(C)[C@H]1CC[C@]2(O)C(=O)CO [Hydrocortisone] = 7.02

---

target: Human CBG-WT (Homo sapiens, UniProt P08185, K148A); construct: residues 11 to 383 of human CBG (Swiss-Prot entry P08185); GST (N, cleaved yes); assay: Isothermal titration calorimetry, steroid titrated to uncleaved human CBG-WT; conditions: ITC, 25°C, single titration, uncleaved human CBG-WT (K126A, E. coli produced)
Sequence (P08185 33-405 K148A): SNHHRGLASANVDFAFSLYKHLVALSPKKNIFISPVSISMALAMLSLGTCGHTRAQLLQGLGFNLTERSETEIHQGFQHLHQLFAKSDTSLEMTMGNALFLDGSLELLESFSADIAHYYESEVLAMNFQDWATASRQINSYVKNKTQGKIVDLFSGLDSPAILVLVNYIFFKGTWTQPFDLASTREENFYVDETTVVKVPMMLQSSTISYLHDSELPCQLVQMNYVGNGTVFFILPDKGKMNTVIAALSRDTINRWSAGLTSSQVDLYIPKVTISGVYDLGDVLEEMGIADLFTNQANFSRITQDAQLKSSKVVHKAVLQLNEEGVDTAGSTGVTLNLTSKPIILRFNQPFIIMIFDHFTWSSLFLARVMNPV
pKd: −log10 of the molar value.
readout.type: pKd

C[C@]12CCC(=O)C=C1CC[C@@H]1[C@@H]2[C@@H](O)C[C@@]2(C)[C@H]1CC[C@]2(O)C(=O)CO [Hydrocortisone] = 7.35

---

Target: Cleaved rat CBG-RCL1 (Rattus norvegicus, UniProt P31211, A357V/P358T)
Construct: residues 5 to 374 of rat CBG (P31211); GST (N, cleaved yes)
Sequence (P31211 27-396 A357V/P358T limits assumed): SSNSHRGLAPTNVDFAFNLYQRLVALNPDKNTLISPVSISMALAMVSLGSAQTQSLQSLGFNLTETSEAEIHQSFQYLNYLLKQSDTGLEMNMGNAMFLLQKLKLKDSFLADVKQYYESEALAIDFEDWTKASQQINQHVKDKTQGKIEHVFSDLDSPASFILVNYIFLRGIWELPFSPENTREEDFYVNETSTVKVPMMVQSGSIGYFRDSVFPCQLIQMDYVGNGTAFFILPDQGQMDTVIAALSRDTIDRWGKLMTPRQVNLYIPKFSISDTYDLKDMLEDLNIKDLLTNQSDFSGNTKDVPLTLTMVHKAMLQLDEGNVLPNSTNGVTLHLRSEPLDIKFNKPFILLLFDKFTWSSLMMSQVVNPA
Assay: Isothermal titration calorimetry, steroid titrated to neutrophil elastase-cleaved rat CBG-RCL1
Conditions: ITC, 25°C, single titration, cleaved rat CBG-RCL1
readout.type: Kd

C[C@]12CCC(=O)C=C1CC[C@@H]1[C@@H]2[C@@H](O)C[C@@]2(C)[C@H]1CC[C@]2(O)C(=O)CO [Hydrocortisone] = 209 nM
